- Test system: Mycobacterium tuberculosis
- Run Description: Antimycobacterial activity against Mycobacterium tuberculosis H37Ra ATCC 25177 assessed as inhibition of bacterial growth at 128 uM measured after 7 days by luminescence based analysis relative to control
- Format: functional
- Protocol Conditions: H37Ra ATCC 25177, 168 h, time 7 day
Observable: inhibition at 128 µM

According to the records, this compound `NNC(=O)c1ccncc1` displays inhibition at 128 µM of 100%

Others:
According to the records, this compound `C=CCONC(=O)Cn1cc(C(=O)N[C@@H](C)C(=O)N[C@@H](CC(C)C)C(=O)O)c2ccccc21` displays inhibition at 128 µM of 12.4%

According to the records, this compound `CO[C@H]1/C=C/O[C@@]2(C)Oc3c(C)c(O)c4c(O)c(c(/C=N/N5CCN(C)CC5)c(O)c4c3C2=O)NC(=O)/C(C)=C\C=C\[C@H](C)[C@H](O)[C@@H](C)[C@@H](O)[C@@H](C)[C@H](OC(C)=O)[C@@H]1C` displays inhibition at 128 µM of 100%

According to the records, this compound `C=CCONC(=O)Cn1cc(C(=O)NCC(=O)N[C@@H](CC(C)C)C(=O)O)c2ccccc21` displays inhibition at 128 µM of 14.6%

According to the records, this compound `C=CCONC(=O)Cn1ccc(C(=O)N[C@@H](C)C(=O)N[C@@H](CC(C)C)C(=O)O)c1` displays inhibition at 128 µM of 13.8%

According to the records, this compound `COc1nc2ccc(Br)cc2cc1[C@@H](c1ccccc1)[C@@](O)(CCN(C)C)c1cccc2ccccc12` displays inhibition at 128 µM of 100%

According to the records, this compound `COC(=O)[C@@H](NC(=O)c1ccc(/C=C2\SC(=O)N(CC(=O)NOCc3ccccc3)C2=O)cc1)C(C)C` displays inhibition at 128 µM of 6.2%

According to the records, this compound `C=CCONC(=O)Cn1cc(C(=O)N[C@@H](C)C(=O)N[C@H](C(=O)O)C(C)C)c2ccccc21` displays inhibition at 128 µM of 13.6%

According to the records, this compound `CC(C)C[C@H](NC(=O)CNC(=O)c1ccn(CC(=O)NOCc2ccccc2)c1)C(=O)O` displays inhibition at 128 µM of 9.2%

According to the records, this compound `CC(C)[C@H](NC(=O)CNC(=O)c1cn(CC(=O)NOCc2ccccc2)c2ccccc12)C(=O)O` displays inhibition at 128 µM of 30.3%

According to the records, this compound `CC(C)C[C@H](NC(=O)CNC(=O)c1cn(CC(=O)NOCc2ccccc2)c2ccccc12)C(=O)O` displays inhibition at 128 µM of 11.1%

According to the records, this compound `C=CCONC(=O)CN1C(=O)S/C(=C\c2cccc(C(=O)N[C@@H](CC(C)C)C(=O)OC)c2)C1=O` displays inhibition at 128 µM of 3.2%

According to the records, this compound `C=CCONC(=O)Cn1ccc(C(=O)NCC(=O)N[C@@H](CC(C)C)C(=O)O)c1` displays inhibition at 128 µM of 6.9%

###

A collection of compounds and their measured inhibition
- Test system: Mycobacterium tuberculosis
- Run Description: Inhibition of Mycobacterium tuberculosis Zmp1 at 8 to 40 uM by MALDI-TOF-MS analysis
- Protocol Conditions: dose 8-40 µM

According to the records, this compound `CC(C)C[C@H](NC(=O)CNC(=O)c1ccn(CC(=O)NOCc2ccccc2)c1)C(=O)O` displays inhibition of 26%

According to the records, this compound `C=CCONC(=O)Cn1ccc(C(=O)N[C@@H](C)C(=O)N[C@H](C(=O)O)C(C)C)c1` displays inhibition of 27%

According to the records, this compound `C=CCONC(=O)Cn1cc(C(=O)N[C@@H](C)C(=O)N[C@@H](CC(C)C)C(=O)O)c2ccccc21` displays inhibition of 86%

Others:
According to the records, this compound `C=CCONC(=O)Cn1cc(C(=O)N[C@@H](C)C(=O)N[C@H](C(=O)O)C(C)C)c2ccccc21` displays inhibition of 50%

According to the records, this compound `CC(C)C[C@H](NC(=O)[C@H](C)NC(=O)c1cn(CC(=O)NOCc2ccccc2)c2ccccc12)C(=O)O` displays inhibition of 56%

According to the records, this compound `CC(C)[C@H](NC(=O)CNC(=O)c1ccn(CC(=O)NOCc2ccccc2)c1)C(=O)O` displays inhibition of 70%

According to the records, this compound `CC(C)[C@H](NC(=O)CNC(=O)c1cn(CC(=O)NOCc2ccccc2)c2ccccc12)C(=O)O` displays inhibition of 69%

According to the records, this compound `C=CCONC(=O)Cn1ccc(C(=O)N[C@@H](C)C(=O)N[C@@H](CC(C)C)C(=O)O)c1` displays inhibition of 88%
